Data provenance: PubChem BioAssay

- experiment: small molecules captured by biotinylated probe aFSTL3 – biochemical, small-molecule microarray, fluorescence 635/667, stem cell growth factor project, primary screen (AID 1064);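 note: measures binding of the biotinylated anti-FSTL3 antibody to printed compounds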
- assay_conditions: higher = more signal
measured_metric: composite z-score
The response must contain the number and no unit.

These solved cases illustrate the format of a correct answer.
[
  {
    "compound": "CCN(CC)c1ccc(N2CC=CC34O[C@@H]5C=CCCOC(=O)C5[C@H]3C(=O)N(CCCO)[C@@H]4C2=O)cc1 (stereo partly drawn)",
    "reading": -0.0768
  },
  {
    "compound": "CN(C)CCCC[C@@H]1NC(=O)[C@@H]2C[C@H](C(=O)NCCCCCN)[C@H](c3ccc(O)cc3)N2C1=O",
    "reading": 0.591
  }
]

Now for another entry.
(Q) GET /values?readout=composite z-score&item= `C[n+]1ccc2ccc(O)cc2c1`
(A) -0.201

====

- System: Plasmodium falciparum Sir2 (PF13_0152, Sir2A)
- experiment: Plasmodium falciparum Sir2A binding compounds – biochemical, small-molecule microarray, 635 nm fluorescence, primary screen (AID 1098);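 note: score merges spot fluorescence intensity with its signal-to-noise ratio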
- assay_conditions: fluorescence 635 nm, higher = more signal
measured_metric: composite z-score
The response must contain the number and no unit.

[
  {
    "molecule": "COCCOC(=O)N1C(=O)[C@@]2(c3cc(C#CCC(C(=O)OC)C(=O)OC)ccc31)[C@H](c1ccc(OCCO)cc1)N1[C@H](c3ccccc3)[C@H](c3ccccc3)OC(=O)[C@H]1[C@@H]2C(=O)NC[C@H](O)c1ccccc1",
    "reading": 1.52
  },
  {
    "molecule": "CC(C)CNC(=O)[C@@]1(C)c2ccccc2C(=O)N(C(C)C)[C@H]1c1ccc(CO)cc1",
    "reading": 1.09
  },
  {
    "molecule": "NC(=O)[C@]1(Cc2ccccc2)N=C(c2ccc(OCCCO)cc2)O[C@@H]1c1ccccc1",
    "reading": 0.647
  },
  {
    "molecule": "CC(=O)n1cc(C(O)C2C=CC3C(=O)N(c4ccccc4)C(=O)C3N2Nc2ccc(C#N)cc2)c2ccccc21 (centres undefined)",
    "reading": 0.696
  },
  {
    "molecule": "CN1C(=O)C2C=CC(C(O)C(C)(C)C)N(Nc3ccccc3)C2C1=O (centres undefined)",
    "reading": 1.24
  }
]

(Q) Requested read-out composite z-score, target or system Plasmodium falciparum Sir2 (PF13_0152, Sir2A), entry `C=CC[C@@]1(C(=O)NCCN2CCOCC2)N=C(c2ccc(OCCCO)cc2)O[C@@H]1c1ccccc1CN=[N+]=[N-]`
(A) 1.02

(Q) Requested read-out composite z-score, target or system Plasmodium falciparum Sir2 (PF13_0152, Sir2A), entry C=CCC(OC(C)=O)[C@@H]1[C@@H](N(Cc2ccc(-c3ccccc3)cc2)C(=O)c2ccc(C)cc2)c2cc(OCCCO)ccc2N1C(=O)c1ccc2ccccc2n1 (some centres undefined)
(A) -0.124

(Q) Requested read-out composite z-score, target or system Plasmodium falciparum Sir2 (PF13_0152, Sir2A), entry COCC1C2CC[C@H]3C(OCc4ccc(F)cc4C(F)(F)F)OC[C@]4(C)[C@H]3C2=C(CN4C(=O)OC(C)(C)C)[C@H](C)C1COC (some centres undefined)
(A) 1.45

(Q) Requested read-out composite z-score, target or system Plasmodium falciparum Sir2 (PF13_0152, Sir2A), entry `C=CCN1C(=O)[C@@]2(O[C@@H](CCO)[C@H]([Si](C)(C)c3ccc(OC)cc3)[C@H]2C)c2cc(N3C(=O)COc4ccccc43)ccc21`
(A) 1.16
